# testName: Saturation solubility of naltrexone in different media
# Assay type: physicochemical
# conditionsUsed: pH 7.4, aqueous buffer, thermodynamic from solid; PBS pH7.4; read-out: Solubility of API
measuredProperty: solubility (µg/mL)
Give bare numbers, in µg/mL.

What the record says about O=C1CC[C@@]2(O)[C@H]3Cc4ccc(O)c5c4[C@@]2(CCN3CC2CC2)[C@H]1O5 [naltrexone] : solubility is 960

---

# testName: Saturation solubility of naltrexone in different media
# Format: physicochemical
# conditionsUsed: pH 6, aqueous buffer, thermodynamic from solid; PBS pH6.0 (1:5); read-out: Solubility of API
measuredProperty: solubility (µg/mL)
Numbers only, in µg/mL.

What the record says about O=C1CC[C@@]2(O)[C@H]3Cc4ccc(O)c5c4[C@@]2(CCN3CC2CC2)[C@H]1O5 [naltrexone] : solubility is 2910

# credit: patent US12569430B2
